Biological target: Sodium-dependent serotonin transporter (Homo sapiens, UniProt P31645)
Sequence (P31645 whole entry): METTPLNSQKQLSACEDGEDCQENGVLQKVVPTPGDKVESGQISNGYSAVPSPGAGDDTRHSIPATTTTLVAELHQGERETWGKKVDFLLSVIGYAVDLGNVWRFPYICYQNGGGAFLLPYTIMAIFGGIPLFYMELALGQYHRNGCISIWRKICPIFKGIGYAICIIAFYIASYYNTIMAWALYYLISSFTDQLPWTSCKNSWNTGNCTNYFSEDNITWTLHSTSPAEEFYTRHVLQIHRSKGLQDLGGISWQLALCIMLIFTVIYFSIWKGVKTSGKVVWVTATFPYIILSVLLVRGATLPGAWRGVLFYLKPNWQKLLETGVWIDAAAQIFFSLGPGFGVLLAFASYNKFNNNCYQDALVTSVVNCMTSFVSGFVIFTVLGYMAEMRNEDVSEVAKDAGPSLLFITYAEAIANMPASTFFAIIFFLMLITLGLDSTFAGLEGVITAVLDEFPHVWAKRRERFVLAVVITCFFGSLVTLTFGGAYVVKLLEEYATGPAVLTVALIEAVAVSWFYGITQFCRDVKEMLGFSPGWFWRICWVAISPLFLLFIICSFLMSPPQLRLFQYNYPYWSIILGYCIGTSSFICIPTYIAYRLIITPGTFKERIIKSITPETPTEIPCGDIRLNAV
Assay: Inhibition of [3H]serotonin uptake at human SERT expressed in HEK293 cells after 10 min by scintillation counting
pIC50: −log10 of the molar value.
Observed property: pIC50

P: OC(CCN1CC=C(Cc2ccccc2)CC1)c1ccc(Cl)c(Cl)c1 (racemic)
Q: COc1ccc(C(O)CCN2CC=C(Cc3ccccc3)CC2)cc1 (racemic)
R: OC(CCN1CC=C(Cc2ccccc2)CC1)c1csc2ccccc12 (racemic)
Ask: List items by pIC50 in falling order. Hello, could you send the labels back in the order asked? Thank you.
Result: R, P, Q

###

Molecular target: 5-hydroxytryptamine receptor 7 (Homo sapiens) (UniProt P34969)
Sequence (P34969 whole entry): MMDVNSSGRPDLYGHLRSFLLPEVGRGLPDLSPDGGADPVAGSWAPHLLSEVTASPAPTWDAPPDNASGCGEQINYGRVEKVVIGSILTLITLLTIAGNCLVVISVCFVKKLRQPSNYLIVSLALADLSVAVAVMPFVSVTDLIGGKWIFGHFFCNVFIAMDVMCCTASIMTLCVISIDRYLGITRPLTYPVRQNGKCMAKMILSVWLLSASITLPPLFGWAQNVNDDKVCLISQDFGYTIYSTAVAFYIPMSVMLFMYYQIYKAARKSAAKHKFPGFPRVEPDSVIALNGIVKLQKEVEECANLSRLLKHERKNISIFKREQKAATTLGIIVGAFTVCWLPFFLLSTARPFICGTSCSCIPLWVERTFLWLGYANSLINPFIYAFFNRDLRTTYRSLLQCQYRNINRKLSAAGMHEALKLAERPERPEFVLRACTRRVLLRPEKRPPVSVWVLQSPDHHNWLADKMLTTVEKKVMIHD
Experiment: Displacement of [3H]LSD from human recombinant 5HT7 receptor expressed in CHO cells at 10 uM after 120 mins by liquid scintillation counting
Assay type: cell-based
Observed property: inhibition (%)

Known results for compounds:
Compound	inhibition / %
COc1ccc2cc(C(O)CCN3CC=C(Cc4ccccc4)CC3)ccc2c1Cl (racemic)	5.8
OC(CCN1CCC(O)(Cc2ccccc2)CC1)c1ccc(Cl)c(Cl)c1 (racemic)	19.2
OC(CCN1CC=C(Cc2ccccc2)CC1)c1cc2ccccc2s1 (racemic)	43.5

A: OC(CCN1CC=C(Cc2ccccc2)CC1)c1csc2ccccc12 (racemic)
B: OC(CCN1CC=C(Cc2ccccc2)CC1)c1ccc(Cl)c(Cl)c1 (racemic)
Ask: Hi, I'm comparing A with B and wondering which one has the bigger number for inhibition. Any idea? // caller expects the label of the chosen entry
Result: A
(A: 29.7%, B: 0.5%)

###

Biological target: D(1A) dopamine receptor (Homo sapiens)
Sequence (P21728 whole entry): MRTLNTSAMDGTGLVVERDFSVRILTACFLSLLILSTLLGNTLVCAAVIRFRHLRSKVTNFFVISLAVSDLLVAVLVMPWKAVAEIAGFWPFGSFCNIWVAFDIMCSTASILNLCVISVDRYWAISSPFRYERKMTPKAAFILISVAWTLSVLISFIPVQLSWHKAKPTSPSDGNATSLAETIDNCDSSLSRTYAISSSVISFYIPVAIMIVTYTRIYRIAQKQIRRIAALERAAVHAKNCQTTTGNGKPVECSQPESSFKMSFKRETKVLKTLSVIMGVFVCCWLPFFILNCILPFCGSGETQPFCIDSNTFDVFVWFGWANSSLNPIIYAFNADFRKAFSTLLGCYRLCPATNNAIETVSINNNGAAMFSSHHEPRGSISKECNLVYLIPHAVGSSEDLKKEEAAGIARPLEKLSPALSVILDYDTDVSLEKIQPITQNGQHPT
Assay: Displacement of [3H]SCH23390 from dopamine D1 receptor at 10 uM
Observed property: inhibition (%)

Example entries and their recorded answers appear below.
Compound	Tested system	Unit descriptor	inhibition
OC(CCN1CC=C(Cc2ccccc2)CC1)c1ccc(Cl)c(Cl)c1 (racemic)	D(1A) dopamine receptor (Homo sapiens)	%	33.3
COc1ccc2cc(C(O)CCN3CC=C(Cc4ccccc4)CC3)ccc2c1Cl (racemic)	D(1A) dopamine receptor (Homo sapiens)	%	27.1
OC(CCN1CCC(O)(Cc2ccccc2)CC1)c1ccc(Cl)c(Cl)c1 (racemic)	D(1A) dopamine receptor (Homo sapiens)	%	47.9

I: OC(CCN1CC=C(Cc2ccccc2)CC1)c1cc2ccccc2s1 (racemic)
II: OC(CCN1CC=C(Cc2ccccc2)CC1)c1csc2ccccc12 (racemic)
Ask: When their inhibition values are compared, which is larger, I or II ? Respond using the label that marks the chosen record.
Result: I

###

Molecular target: Sodium-dependent noradrenaline transporter (Homo sapiens, UniProt P23975)
Sequence (P23975 whole entry): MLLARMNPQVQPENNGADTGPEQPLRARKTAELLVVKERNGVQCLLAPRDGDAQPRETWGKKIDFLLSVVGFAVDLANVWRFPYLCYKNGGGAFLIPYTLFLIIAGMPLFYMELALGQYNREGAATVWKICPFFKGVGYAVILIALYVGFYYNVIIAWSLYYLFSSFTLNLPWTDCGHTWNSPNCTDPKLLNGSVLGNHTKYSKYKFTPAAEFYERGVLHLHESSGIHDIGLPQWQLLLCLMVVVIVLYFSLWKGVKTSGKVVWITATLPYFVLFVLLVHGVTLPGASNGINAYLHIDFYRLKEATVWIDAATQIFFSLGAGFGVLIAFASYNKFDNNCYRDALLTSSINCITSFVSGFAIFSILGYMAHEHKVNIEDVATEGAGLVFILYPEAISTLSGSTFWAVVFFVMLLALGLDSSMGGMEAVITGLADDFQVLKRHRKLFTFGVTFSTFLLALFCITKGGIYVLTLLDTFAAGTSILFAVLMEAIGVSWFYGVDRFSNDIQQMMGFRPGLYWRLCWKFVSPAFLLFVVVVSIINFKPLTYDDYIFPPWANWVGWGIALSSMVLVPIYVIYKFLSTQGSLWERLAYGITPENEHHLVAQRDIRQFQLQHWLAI
Assay: Inhibition of [3H]noradrenaline uptake at human NET expressed in HEK293 cells at 10 uM after 10 mins by scintillation counting
Observed property: inhibition (%)

Worked set:
Molecule	Value
C[C@H]([C@@H](O)c1csc2ccccc12)N1CC=C(Cc2ccccc2)CC1 (racemic)	78
C[C@@H]([C@@H](O)c1csc2ccccc12)N1CC=C(Cc2ccccc2)CC1 (racemic)	34
COc1ccc([C@H](O)[C@H](C)N2CC=C(Cc3ccccc3)CC2)cc1 (racemic)	55
C[C@H]([C@@H](O)c1cccc(F)c1)N1CC=C(Cc2ccccc2)CC1 (racemic)	83
OC(CCN1CC=C(Cc2ccccc2)CC1)c1ccc2c(c1)CCO2 (racemic)	88

a: C[C@H]([C@@H](O)c1ccc(Cl)c(Cl)c1)N1CC=C(Cc2ccccc2)CC1 (racemic)
b: COc1ccc(C(O)CCN2CC=C(Cc3ccccc3)CC2)cc1 (racemic)
Ask: Of the two listed items, which has the higher inhibition? First: a Second: b Choose, then provide that item's label.
Result: b
(b: 62%, a: 36%)
